Data provenance is patent US20230079819A1.

// IC50 lookup, one value per entry
target: BRM (Homo sapiens); construct: made in house; host or cells: High Five insect cells; assay: ATPase catalytic activity of BRM, ADP-Glo in vitro biochemical assay; details: ATPase catalytic activity, 30 nM BRM, 400 μM ATP, read-out: BRM IP50 (μM)*

Prompt: Return value of IC50 for input CC(Oc1ccccc1)c1cccc(-c2csc(NC(=O)CNC(=O)c3ccn(S(C)(=O)=O)c3)n2)c1 (stereo not drawn) [Compound 103] , no commentary.
Response: > 0.1 µM

---

molecular target: BRM (Homo sapiens, UniProt P51531); construct: made in house; host or cells: High Five insect cells; assay: ATPase catalytic activity of BRM, ADP-Glo in vitro biochemical assay; details: ATPase catalytic activity, 30 nM BRM, 400 μM ATP, read-out: BRM IP50
Sequence (P51531 whole entry): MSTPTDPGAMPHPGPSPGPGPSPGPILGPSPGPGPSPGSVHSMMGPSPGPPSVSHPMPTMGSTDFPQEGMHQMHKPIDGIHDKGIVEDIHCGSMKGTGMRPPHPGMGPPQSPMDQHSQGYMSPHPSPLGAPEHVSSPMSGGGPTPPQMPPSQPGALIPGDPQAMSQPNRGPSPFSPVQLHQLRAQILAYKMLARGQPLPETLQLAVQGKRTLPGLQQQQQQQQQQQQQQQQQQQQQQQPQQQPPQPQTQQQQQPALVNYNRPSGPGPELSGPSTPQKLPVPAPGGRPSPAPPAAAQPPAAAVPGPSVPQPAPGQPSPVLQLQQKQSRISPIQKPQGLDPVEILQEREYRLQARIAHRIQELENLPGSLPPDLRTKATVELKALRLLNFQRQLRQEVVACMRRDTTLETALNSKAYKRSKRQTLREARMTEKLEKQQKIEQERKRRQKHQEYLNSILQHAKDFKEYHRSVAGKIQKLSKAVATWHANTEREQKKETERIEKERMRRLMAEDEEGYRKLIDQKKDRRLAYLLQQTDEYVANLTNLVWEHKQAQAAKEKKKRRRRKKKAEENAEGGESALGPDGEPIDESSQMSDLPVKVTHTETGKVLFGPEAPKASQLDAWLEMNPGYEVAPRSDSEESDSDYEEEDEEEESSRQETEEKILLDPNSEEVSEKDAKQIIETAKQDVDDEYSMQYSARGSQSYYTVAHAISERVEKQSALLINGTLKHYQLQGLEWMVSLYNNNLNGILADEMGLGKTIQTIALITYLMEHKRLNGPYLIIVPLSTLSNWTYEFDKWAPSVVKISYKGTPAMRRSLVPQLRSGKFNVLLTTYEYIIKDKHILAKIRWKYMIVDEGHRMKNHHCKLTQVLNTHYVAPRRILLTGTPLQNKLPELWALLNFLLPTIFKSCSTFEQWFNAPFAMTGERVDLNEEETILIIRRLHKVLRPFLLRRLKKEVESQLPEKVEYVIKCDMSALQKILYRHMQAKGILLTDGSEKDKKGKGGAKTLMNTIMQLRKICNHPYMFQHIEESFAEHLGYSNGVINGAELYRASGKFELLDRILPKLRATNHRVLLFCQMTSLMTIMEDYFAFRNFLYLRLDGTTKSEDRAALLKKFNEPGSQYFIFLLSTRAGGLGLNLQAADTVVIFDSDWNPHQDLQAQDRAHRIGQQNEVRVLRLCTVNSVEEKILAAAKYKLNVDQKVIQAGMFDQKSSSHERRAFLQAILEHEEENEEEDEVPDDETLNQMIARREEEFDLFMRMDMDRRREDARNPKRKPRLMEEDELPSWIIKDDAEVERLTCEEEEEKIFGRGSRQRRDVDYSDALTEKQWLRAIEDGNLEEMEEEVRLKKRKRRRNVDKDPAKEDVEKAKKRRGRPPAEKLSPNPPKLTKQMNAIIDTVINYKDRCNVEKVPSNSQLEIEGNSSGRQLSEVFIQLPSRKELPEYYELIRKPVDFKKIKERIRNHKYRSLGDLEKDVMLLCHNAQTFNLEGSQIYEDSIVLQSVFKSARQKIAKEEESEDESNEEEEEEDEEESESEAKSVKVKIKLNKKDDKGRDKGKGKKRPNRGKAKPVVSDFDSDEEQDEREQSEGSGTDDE
RECORDED_METRIC: IC50

Answered examples (8):
1. CS(=O)(=O)n1ccc(C(=O)NCC(=O)Nc2nc(-c3ccc4c(c3)C(F)(F)CC4)cs2)c1: > 10 nM
2. CC(C)(C)n1ccc(C(=O)NCC(=O)Nc2nc(-c3cccc(N4CCC(C(F)F)C4)n3)cs2)c1 (stereo not drawn): > 10 nM
3. CC(C)(C)n1ccc(C(=O)NCC(=O)Nc2nc(-c3cccc(C4(CO)CC4)n3)cs2)c1: > 10 nM
4. N#CC1(n2ccc(C(=O)NCC(=O)Nc3nc(-c4cccc(N5CCC5)n4)cs3)c2)CC1: > 10 nM
5. Cn1ccc(-c2cccc(-c3csc(NC(=O)CNC(=O)c4ccn(C(C)(C)C#N)c4)n3)c2)n1: < 10 nM
6. CC1CN(c2cccc(-c3csc(NC(=O)CNC(=O)c4ccn(C(C)(C)C)c4)n3)n2)C1: > 100 nM
7. COC(=O)N1CCC[C@@H](c2csc(NC(=O)CNC(=O)c3ccn(S(C)(=O)=O)c3)n2)C1: > 10 nM
8. CC(C)(C)n1ccc(C(=O)NCC(=O)Nc2nc(-c3cccc(N4CCC5(CCCCO5)C4)n3)cs2)c1 (stereo not drawn): > 10 nM

# input for lookup
Prompt: Return value of IC50 for input CS(=O)(=O)n1ccc(C(=O)NCC(=O)Nc2nc(-c3cccc([C@H]4[C@@H]5COC[C@@H]54)c3)cs2)c1 , no commentary.
Response: > 10 nM
